# Tested on: CYP3A4 mRNA
# Assay text: CYP3A4 Induction Assay (qPCR, human hepatocytes)
# Type: in vitro ADME
# Condition description: cryopreserved human hepatocytes (plated), 10 μM compound, mRNA fold over vehicle (0.1% DMSO)
Listed compounds paired with reported fold induction at 1 day, 10 µM
API doc: respond with a numeric literal and nothing else, no unit.

Some compounds with known fold induction at 1 day, 10 µM results, for comparison:
INSERT INTO results (compound, test_target, measured_attribute, measured_number) VALUES
  ('CO[C@@H](C)c1c(Nc2ccc([C@H](N(C)C(=O)C3CCS(=O)(=O)CC3)C(F)(F)F)cc2)cnc2sc(C)nc12 [Example 1]', 'CYP3A4 mRNA', 'fold induction at 1 day, 10 µM', 1.45),
  ('CO[C@H](c1c(Nc2ccc([C@H](N(C)C(=O)C3CCN(C(=O)CO)CC3)C(F)(F)F)cc2)cnc2sc(C)nc12)C(F)F [Example 21]', 'CYP3A4 mRNA', 'fold induction at 1 day, 10 µM', 1.29);

So what fold induction at 1 day, 10 µM did CO[C@@H](C)c1c(Nc2ccc([C@H](N(C)C(=O)C3CCN(C(=O)C(O)CO)CC3)C(F)(F)F)cc2)cnc2sc(C)nc12 (stereo partly drawn) [Example 24] get with CYP3A4 mRNA?
1.49

So what fold induction at 1 day, 10 µM did CO[C@@H](C)c1c(Nc2ccc([C@H](N(C)C(=O)C3CCN(C(=O)CCO)CC3)C(F)(F)F)cc2)cnc2sc(C)nc12 [Example 22] get with CYP3A4 mRNA?
1.09

So what fold induction at 1 day, 10 µM did CO[C@H](c1c(Nc2ccc([C@H](N(C)C(=O)C3CCN(C(C)=O)CC3)C(F)(F)F)cc2)cnc2sc(C)nc12)C(F)F [Example 18] get with CYP3A4 mRNA?
2.8

So what fold induction at 1 day, 10 µM did CO[C@H](C)c1c(Nc2ccc([C@@H](C(F)F)N(C)C(=O)C3CCS(=O)(=O)CC3)cc2)cnc2sc(C)nc12 [Example 12] get with CYP3A4 mRNA?
3.65

Value source: patent US20230312601A1
